# subject of test: human CD33 variant P48L (human, UniProt P20138 18-364)
# Sequence (P20138 18-364 P48L limits assumed): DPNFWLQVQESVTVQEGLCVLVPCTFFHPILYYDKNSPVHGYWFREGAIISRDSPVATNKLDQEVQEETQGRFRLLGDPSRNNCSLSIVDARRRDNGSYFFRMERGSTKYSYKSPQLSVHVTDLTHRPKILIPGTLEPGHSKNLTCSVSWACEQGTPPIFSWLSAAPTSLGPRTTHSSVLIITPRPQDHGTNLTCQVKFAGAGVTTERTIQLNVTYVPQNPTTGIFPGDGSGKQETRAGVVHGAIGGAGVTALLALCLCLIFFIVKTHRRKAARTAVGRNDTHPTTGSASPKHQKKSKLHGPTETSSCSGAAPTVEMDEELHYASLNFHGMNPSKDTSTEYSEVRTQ
# measurement notes: flow cytometry, IgG on cells expressing the mutant
recorded metric: Mean % WT Binding

In: In one line, give reported Mean % WT Binding of the entry Refmab #4 (antibody, human IgG1, V domains shown, Tested in IgG format; human IgG1 Fc silent (PG-LALA)) VH: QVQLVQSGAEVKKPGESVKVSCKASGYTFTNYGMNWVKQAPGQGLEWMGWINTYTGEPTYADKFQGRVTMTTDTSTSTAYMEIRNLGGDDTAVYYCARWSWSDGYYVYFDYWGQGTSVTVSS VL: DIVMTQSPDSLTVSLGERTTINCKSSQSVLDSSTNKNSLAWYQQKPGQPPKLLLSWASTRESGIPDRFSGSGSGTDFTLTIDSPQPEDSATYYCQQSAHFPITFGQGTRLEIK .
Out: 1 % of WT

In: In one line, give reported Mean % WT Binding of the entry Refmab #3 (antibody, human IgG1, V domains shown, Tested in IgG format; human IgG1 Fc silent (PG-LALA)) VH: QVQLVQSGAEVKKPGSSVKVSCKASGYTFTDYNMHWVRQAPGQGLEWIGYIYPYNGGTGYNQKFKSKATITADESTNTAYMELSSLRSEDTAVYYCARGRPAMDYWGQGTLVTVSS VL: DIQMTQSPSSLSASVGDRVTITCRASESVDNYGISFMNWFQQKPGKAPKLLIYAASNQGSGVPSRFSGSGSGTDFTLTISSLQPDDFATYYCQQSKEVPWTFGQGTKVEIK .
Out: 111 % of WT

In: In one line, give reported Mean % WT Binding of the entry Refmab #1 (antibody, human IgG1, V domains shown, Tested in IgG format; human IgG1 (Absolute Antibody hP67.6, Cat. No. Ab00283-10.0); also called hP67.6) VH: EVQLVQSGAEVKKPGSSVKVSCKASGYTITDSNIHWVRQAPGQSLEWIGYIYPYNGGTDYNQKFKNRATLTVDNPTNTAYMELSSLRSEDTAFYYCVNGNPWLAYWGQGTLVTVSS VL: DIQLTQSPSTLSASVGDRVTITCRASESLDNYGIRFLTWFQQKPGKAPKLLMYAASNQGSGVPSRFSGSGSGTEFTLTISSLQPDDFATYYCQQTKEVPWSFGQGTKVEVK .
Out: 102 % of WT

In: In one line, give reported Mean % WT Binding of the entry Refmab #2 (antibody, human IgG1, V domains shown, Tested in IgG format; human IgG1 Fc silent (PG-LALA)) VH: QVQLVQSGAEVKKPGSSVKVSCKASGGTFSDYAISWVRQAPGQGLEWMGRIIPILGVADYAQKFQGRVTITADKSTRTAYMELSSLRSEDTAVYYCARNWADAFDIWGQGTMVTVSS VL: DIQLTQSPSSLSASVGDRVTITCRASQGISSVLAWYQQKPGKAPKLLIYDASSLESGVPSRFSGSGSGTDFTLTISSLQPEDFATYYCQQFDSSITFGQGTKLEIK .
Out: 90.4 % of WT
